The following variants are shown together with reported protein stability index values.
B1: CDC25B (parent)
chain: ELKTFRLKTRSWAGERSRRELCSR

# Variants of: B1
# procedure.text: protein stability index of a GFP-peptide fusion (GPS, HEK-293T) (PSI 1-6); higher = more stable;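 note: lentivirally expressed fusions sorted by FACS into six bins by GFP to DsRed ratio, PSI derived from sequencing read proportions per bin multiplied by bin number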
# experimental.conditions: c terminus: a fixed tail appended
quantity: protein stability index

>>> print(df.to_string())
    mutation_name  reading
 0           R16A     3.64
 1           R19W     2.02
 2           R10W     2.41
 3           A13D     3.98
 4           W12P     3.55
 5           R19G     3.46
 6           S23P     3.26
 7            T4S      3.6
 8           R24W     2.58
 9           S17I     2.32
10            E1C     3.07
11           E20M     3.25
12            R6E     1.84
13            K8L      3.2
14            R6N      3.3
15           E20P     3.08
16           E20I     2.66
17           L21N     3.35
18            T4V     3.27
19           S11D     2.95
20           E15K      3.3
21           R18L     3.23
22            E1N     3.01
23           L21W     2.55
24           S11N      3.2
25           E20S     2.92
26            L7S     3.91
27            E1A     3.96
28           L21V     3.71
29            F5S     3.94
30           L21M     3.33
31           A13W      2.2
32           R24H      3.3
33           S11E     3.11
34           A13G     3.41
35           S11C     2.63
36            K3C     2.78
37            T9M      2.3
38            T4L     2.85
39           R16W     2.55
40           E20F     2.52
41            E1D     3.03
42            L7T     4.08
43            E1P     3.72
44           E20Q     3.53
45           R18P     3.64
